# Tested Target: T1, hPD-L1-his (human, UniProt Q9NZQ7 19-238)
# T1 construct: extracellular domain; also called 携带his标签的人PD-L1胞外区重组蛋白; not shown: his tag
# T1 sequence (Q9NZQ7 19-238): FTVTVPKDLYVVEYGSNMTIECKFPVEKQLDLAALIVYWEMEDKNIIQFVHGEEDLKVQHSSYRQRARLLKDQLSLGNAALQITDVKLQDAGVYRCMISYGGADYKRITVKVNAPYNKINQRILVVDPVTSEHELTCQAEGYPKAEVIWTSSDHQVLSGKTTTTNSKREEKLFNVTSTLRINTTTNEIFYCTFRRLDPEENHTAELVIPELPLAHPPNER
# Assay Remarks: BLI (ForteBIO), hPD-L1-his on anti-Penta-HIS sensor
Observation Type: Kd
Quick note: unit goes after the number.

Complete the entry with Kd for 176L4H4 (antibody, V domains shown, Whole humanized mAb expressed in 293 cells; detected with anti-human IgG; also called 抗人PD-L1人源化抗体176L4H4) VH: QVQLQESGPGLVKPSETLSLTCSVYGDSITSGYWNWIRKPPGKKLEYMGYISYTGSTYQNPSLKSRITFSRDTSKNQYYLKLSSVTAADTAVYYCARSRAWIRTYFDYWGQGTLVTVSS VL: DIQMTQSPSSLSASVGDRVTITCSVSSSISSSNLHWYQQKPGKAPKPWIYGTSNLASGVPSRFSGSGSGTDYTLTISSLQPEDFATYYCQQWSSYPLTFGQGTKLEIKR 0.0881 nM

Complete the entry with Kd for 176L4H1 (antibody, V domains shown, Whole humanized mAb expressed in 293 cells; detected with anti-human IgG; also called 抗人PD-L1人源化抗体176L4H1) VH: QVQLQESGPGLVKPSETLSLTCAVYGDSITSGYWNWIRKPPGKGLEYIGYISYTGSTYQNPSLKSRITMSRDTSKNQYYLKLSSVTAADTAVYYCARSRAWIRTYFDYWGQGTLVTVSS VL: DIQMTQSPSSLSASVGDRVTITCSVSSSISSSNLHWYQQKPGKAPKPWIYGTSNLASGVPSRFSGSGSGTDYTLTISSLQPEDFATYYCQQWSSYPLTFGQGTKLEIKR 0.0084 nM

Complete the entry with Kd for 176L5H2 (antibody, V domains shown, Whole humanized mAb expressed in 293 cells; detected with anti-human IgG; also called 抗人PD-L1人源化抗体176L5H2) VH: QVQLQESGPGLVKPSETLSLTCAVYGDSITSGYWNWIRKPPGKKLEYIGYISYTGSTYQNPSLKSRITMSRDTSKNQYYLKLSSVTAADTAVYYCARSRAWIRTYFDYWGQGTLVTVSS VL: EIVLTQSPSSLSASVGDRVTITCSVSSSISSSNLHWYQQKPGKAPKPWIYGTSNLASGVPSRFSGSGSGTDYTLTISSLQPEDFATYYCQQWSSYPLTFGQGTKLEIKR 0.109 nM

Complete the entry with Kd for 176L4H2 (antibody, V domains shown, Whole humanized mAb expressed in 293 cells; detected with anti-human IgG; also called 抗人PD-L1人源化抗体176L4H2) VH: QVQLQESGPGLVKPSETLSLTCAVYGDSITSGYWNWIRKPPGKKLEYIGYISYTGSTYQNPSLKSRITMSRDTSKNQYYLKLSSVTAADTAVYYCARSRAWIRTYFDYWGQGTLVTVSS VL: DIQMTQSPSSLSASVGDRVTITCSVSSSISSSNLHWYQQKPGKAPKPWIYGTSNLASGVPSRFSGSGSGTDYTLTISSLQPEDFATYYCQQWSSYPLTFGQGTKLEIKR 0.0848 nM

All values here come from patent CN116178545A.
